target: CAXII (Homo sapiens); construct: made in house; host or cells: E. coli; experiment: biochemical; assay type: binding; conditions: FTSA, pH 7.0, 37 °C; read-out: Observed Dissociation Constant (Kd_obs), CAXII;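 note: recombinant CAXII made in E. coli, ANS-fluorescence thermal shift with affinity fitted from Tm versus ligand concentration, intrinsic energy from Kd_obs corrected for deprotonated sulfonamide and Zn-water fractions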
Sequence (O43570 25-354): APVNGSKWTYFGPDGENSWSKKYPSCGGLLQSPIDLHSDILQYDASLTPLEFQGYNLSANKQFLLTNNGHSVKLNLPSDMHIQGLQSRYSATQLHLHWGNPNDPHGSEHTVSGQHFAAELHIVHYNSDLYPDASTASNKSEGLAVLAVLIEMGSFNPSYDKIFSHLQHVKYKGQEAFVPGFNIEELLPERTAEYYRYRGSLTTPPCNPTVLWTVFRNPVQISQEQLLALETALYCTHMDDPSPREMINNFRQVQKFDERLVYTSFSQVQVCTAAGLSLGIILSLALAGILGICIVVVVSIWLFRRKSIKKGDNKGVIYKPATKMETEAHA
Please respond with reported pKd for every item in the list.
Formally, pKd is defined as -log10 of the concentration c, with c in mol/L.

Problem: Field request: pKd | item: NS(=O)(=O)c1ccc(NCC(CC(=O)NN=Cc2ccccc2O)C(=O)NN=Cc2ccccc2O)cc1 (stereo not drawn)
Solution: 4.70

Problem: Field request: pKd | item: NS(=O)(=O)c1ccc(NCC(CC(=O)NN=Cc2ccc(C(=O)O)cc2)C(=O)NN=Cc2ccc(C(=O)O)cc2)c(Cl)c1 (stereo not drawn) [Compound 18b]
Solution: 4.89

Problem: Field request: pKd | item: NS(=O)(=O)c1ccc(NCC(CC(=O)NN=Cc2ccc([N+](=O)[O-])cc2)C(=O)NN=Cc2ccc([N+](=O)[O-])cc2)c(Cl)c1 (stereo not drawn) [Compound 17b]
Solution: 4.24

Problem: Field request: pKd | item: Cc1ccc(C)n1NC(=O)CC(CNc1ccc(S(N)(=O)=O)cc1)C(=O)Nn1c(C)ccc1C (stereo not drawn) [Compound 19a]
Solution: 5.00

Problem: Field request: pKd | item: NS(=O)(=O)c1ccc(NCC(CC(=O)NN=Cc2cccc(O)c2)C(=O)NN=Cc2cccc(O)c2)c(Cl)c1 (stereo not drawn)
Solution: 4.70

Problem: Field request: pKd | item: COc1ccc(C=NNC(=O)CC(CNc2ccc(S(N)(=O)=O)cc2)C(=O)NN=Cc2ccc(OC)cc2)cc1 (stereo not drawn) [Compound 14a]
Solution: 4.42

Problem: Field request: pKd | item: NS(=O)(=O)c1ccc(NCC(Cc2n[nH]c(=S)n2-c2ccccc2)c2n[nH]c(=S)n2-c2ccccc2)cc1 (stereo not drawn) [Compound 25a]
Solution: 5.40

Problem: Field request: pKd | item: Cc1csc(N(CCC(=O)NN)c2ccc(S(N)(=O)=O)cc2)n1
Solution: 6.08

Problem: Field request: pKd | item: COC(=O)CCN(c1ccc(S(N)(=O)=O)cc1)c1nc(C)cs1
Solution: 6.60

Problem: Field request: pKd | item: Cc1ccc(C)n1NC(=O)CC(CNc1ccc(S(N)(=O)=O)cc1Cl)C(=O)Nn1c(C)ccc1C (stereo not drawn) [Compound 19b]
Solution: 5.89

Problem: Field request: pKd | item: CCC(C)=NN1C(=O)CC(CNc2ccc(S(N)(=O)=O)cc2)C1=O (stereo not drawn)
Solution: 4.74

Problem: Field request: pKd | item: Cc1cc(C)n(C(=O)CC(CNc2ccc(S(N)(=O)=O)cc2Cl)C(=O)n2nc(C)cc2C)n1 (stereo not drawn)
Solution: 4.89

Problem: Field request: pKd | item: CC(=NNC(=O)CC(CNc1ccc(S(N)(=O)=O)cc1)C(=O)NN=C(C)c1ccccc1)c1ccccc1 (stereo not drawn)
Solution: 6.30

Problem: Field request: pKd | item: NS(=O)(=O)c1ccc(NCC(CC(=O)NN=Cc2ccc(O)cc2)C(=O)NN=Cc2ccc(O)cc2)cc1 (stereo not drawn)
Solution: 4.60

Problem: Field request: pKd | item: CCOC(=O)c1sc(N(CCC(=O)NN)c2ccc(S(N)(=O)=O)cc2)nc1C
Solution: 4.59

Problem: Field request: pKd | item: NS(=O)(=O)c1ccc(NCC(CC(=O)NN=Cc2ccc(C(=O)O)cc2)C(=O)NN=Cc2ccc(C(=O)O)cc2)cc1 (stereo not drawn) [Compound 18a]
Solution: 4.70

Problem: Field request: pKd | item: NS(=O)(=O)c1ccc(NCC(CC(=O)NN=Cc2ccc([N+](=O)[O-])cc2)C(=O)NN=Cc2ccc([N+](=O)[O-])cc2)cc1 (stereo not drawn) [Compound 17a]
Solution: 4.10

Problem: Field request: pKd | item: NS(=O)(=O)c1ccc(NCC(CC(=O)NN=Cc2ccccc2[N+](=O)[O-])C(=O)NN=Cc2ccccc2[N+](=O)[O-])c(Cl)c1 (stereo not drawn) [Compound 15b]
Solution: 4.30

Problem: Field request: pKd | item: CNC(=S)NNC(=O)CC(CNc1ccc(S(N)(=O)=O)cc1Cl)C(=O)NNC(=S)NC (stereo not drawn) [Compound 22b]
Solution: 5.66

Problem: Field request: pKd | item: NS(=O)(=O)c1ccc(NCC(CC(=O)NNC(=S)Nc2ccccc2)C(=O)NNC(=S)Nc2ccccc2)c(Cl)c1 (stereo not drawn) [Compound 23b]
Solution: 7.30

Problem: Field request: pKd | item: NS(=O)(=O)c1ccc(NCC(CC(=O)NN=Cc2ccccc2[N+](=O)[O-])C(=O)NN=Cc2ccccc2[N+](=O)[O-])cc1 (stereo not drawn) [Compound 15a]
Solution: 4.30

Problem: Field request: pKd | item: NS(=O)(=O)c1ccc(NCC(CC(=O)NN=Cc2ccc(Cl)cc2)C(=O)NN=Cc2ccc(Cl)cc2)c(Cl)c1 (stereo not drawn) [Compound 12b]
Solution: 4.24

Problem: Field request: pKd | item: CCOC(=O)c1sc(N(CCC(=O)NN=Cc2ccccc2)c2ccc(S(N)(=O)=O)cc2)nc1C
Solution: 4.85

Problem: Field request: pKd | item: NS(=O)(=O)c1ccc(NCC(CC(=O)NN=Cc2cccc([N+](=O)[O-])c2)C(=O)NN=Cc2cccc([N+](=O)[O-])c2)c(Cl)c1 (stereo not drawn) [Compound 16b]
Solution: 3.89
